# procedure_text: yeast display, Sf9 membrane polyspecificity reagent, FACS + sequencing; frameworks hold sequencing errors

query_sequence	polyreactivity (PSR sort gate)
QVQLVESGGGLVQAGGSIRLSCAASGSIFGAYAMGWYRQAPGKERELVATITLRDGSTYYADSVKGRFTSSRDNAKNTVYLQMNSLKPEDTAVYYCATYYSAINYGWSKTILYDYWGQGTQVTVSS	low polyreactivity
QVQLVESGGGLVQAGGSLRLSCAASVSIFKGYAMGWYRQAPGKERELVAAITGSDGSTYADSVKGRFTISRDNAKNTVYLQMNSLKPEDTAVYYCNTGGWTRYRPPGYEWNWYDYWGQGTQVTVSS	low polyreactivity

---

# procedure_text: yeast display, Sf9 membrane polyspecificity reagent, FACS + sequencing; frameworks hold sequencing errors
outcome_measure: polyreactivity (PSR sort gate)

query_sequence	outcome_measure	value_measured
QVQLVESGGGLVQAGGSLRLSCAASGRTFYYYSMGWYIQAPGKEREFVAAISYRGGSTYYADSVKGRFTITRDNAKNTVYFQMNSLNPEDTAVYYCAAGLVYLFISHNDYWGQGTQVTVSS	polyreactivity (PSR sort gate)	low polyreactivity
QVQLVESGGGLVQAGGSLRLSCAASGSIFVGNAMGWYRQAPVKERELVADINVTGGTTYYADSVKGRFTISRDNAKNTVYLQMNSLKPEDTAVYYCAARQSIFYSWTGVEYYYWGQGTQVTVSS	polyreactivity (PSR sort gate)	low polyreactivity

---

# procedure_text: yeast display, Sf9 membrane polyspecificity reagent, FACS + sequencing; frameworks hold sequencing errors
outcome_measure: polyreactivity (PSR sort gate)

Below are worked cases with known answers.
query_sequence	outcome_measure	value_measured
QVQLVESGGGVVQAGGSLRLSCAASGSTFARKAMGWYRPAPGKERELVAAITYSGGRTYYADSVKGRVTISRDNAKNTVYLQMNRLKPVDTAVYYCAVKSFSGHGDYWGQGTQVTLSS	polyreactivity (PSR sort gate)	low polyreactivity
QVQLVESGGGLVQAGGSLRLSCAASGGIYLDYAMGWYRQAPGKERELVADINSGADTSYADSVKGRFTISRDNAKNTVYLQMNSLKPEDTAVYYCADDIYVFNGQVYSYGYGYWGQGTQVTVSS	polyreactivity (PSR sort gate)	low polyreactivity
QVQLVESVGGLVQAGGSLRLSCAASGSTFTSNAMGWYRQAPGKEREFVAAISVGGGITYYADSVKGRFTISRDNAKNTVYLQMNSLKPEDTAVYYCAADAWSVILWREMDYWGQGTQVTVSS	polyreactivity (PSR sort gate)	low polyreactivity
QVQLVESGGGLVQAGGSLRLSCAASGSTIIRNTMGWYRKAPGKERELVAAITRSGGSTFYADSVKGRFTISRDNAKNTVYLQMNSLKPEDTAVYYCAAVRSKLYYYWGQGTQVTVSS	polyreactivity (PSR sort gate)	high polyreactivity
QVQLVESGGGLVQAGGSLRLSCAASGRIFTSYAMGWYRQAPGKERELVASITSGGRTDYADSVKGRFTISRDNAKNTVYVQMNSLKPEDTAVYYCNVGTRRALYYPYRPGRYDYWGQGTQVTVSS	polyreactivity (PSR sort gate)	low polyreactivity
QVQLVESGGGLVQAGGSLRLSCAASGYIFVFNTMGWYRQAPGKERELVASISWDAGSTYYADSVKGRFTISRDNAKNTVYLQMNSLKPEDTAVDYCNAGRIRSGSPDYWGQGTQVTVSS	polyreactivity (PSR sort gate)	low polyreactivity
QVQLVESGGGLDQAGGSLRLSCAASGSIFYVNAMGWYRQAPGKERELVAAITSGGSTSYADSVKGRFTISRDNAKNTVYLQMNSLKPEDTAVYYCAADWDYPEQYRVNYEYGYWGLGTQVTVSS	polyreactivity (PSR sort gate)	low polyreactivity
QVQLVESGGGLVQAGGSLRLSCAASGSIFVGYAMGWYRQARGKERELVAAITGSGTRTYYADSVKGRFTISRDNAKNTVYLQMNSLKPEDTAVYYCAAVTYHGNPSEYYPDTVGFYYWGQGTQVTVSS	polyreactivity (PSR sort gate)	low polyreactivity

The following sequences each have a reported value; give each one's polyreactivity (PSR sort gate).
1. QVQLVESGGGLVQAGGTLRLSCAASGRTFSGYAMGWYRQAPGKERELVAAIDRGDGTNYADSVKGRFTISRDNAKNTVYLQMNSLKPEDTAVYYCAADYSYGSTSHTYTGFDYWGQGTQVTVSS
2. QVQLVESGGGLVQAGGSLRLSCAASGRIFAYYAMGWYRQAPGKEREMVAAISRSGGSTYYADSVKGRFPISRDNAKNTVYLQMNSLKPEDTAVYYCAASLKVPYATMNYWGQGTQVTVSS
3. QVQLVESGGGLVQAGGSLRLSCAASGFTFPYYAMGWYRQAPGKERDLVARISSGGSTNYADSVKGRFTISRDNAKNTVYLQMNSLKPEDTAVYYCNKVRTVTTYEYWGQGTQVTVSS
4. QVQLVESGGGLDQAGGSLRLSCAASGLIFRPYDMGWYSQAPGKERELVAAISNGDSTNYADSVKGRFTISRDNAKNTDYLEMNSLKPEDTAVYYCNAAIPSWLEYEYWGQGTQVTVSS
5. QVQLVESGGGLVQAGGSLRLSCAASGRTFRQYAMGWYRQAPGKERELVATISSGGSTYYADSVKGRFTISRDNAKNTVYLHMNSLKPEDTAVYYCNAEGQWSRAPRDYWGQGTQVTVSS
6. QVQLVESGGGLVQAGGSLRLSCAASGFTFKYYAMGWYRQAPRKERELVAAITSRGGSTYYADSVKGRFTISRDNAKNTVYLQMNSLKPEDTAVYYCAARFRKIGVAFDYWGQGTQVTVSS
7. QVQLVESGGGLVQAGGSLRLSCAATGRTFYWNAMGWYRQAPGKERELVAAIDSSGGSTYYADSVKGRFTISRDNAKNTVYLQMNSLKPEDTAVYYCNKDYPTYDYDYWGQGTQVTVSS

Data returned:
low polyreactivity
high polyreactivity
high polyreactivity
low polyreactivity
low polyreactivity
high polyreactivity
low polyreactivity

List reported polyreactivity (PSR sort gate) for each of these sequences:
1. QVQLVESGGGLVQAGGSLRLSCAASGLTFYYYAMGWYRQAPGKEREFVAAITRSGTNTYYADSVKGRFTISRDTAKNTVYLQMNSLKPEDTAVYYCAKTGYSFRVFRKYDWGQGTQVTVSS
2. QVQLVESGGGLVQAGGSLSLSCAASGRNFVINALGWYRQAPGTERELVARIRSGGSTNYADSVKGRFTISRDNAKNTVYLQMNSLKPEDTAVYYCAAYLRTERYGYWGQGTQVTVSS
3. QVQLVESGGGLVPAGGSLRLSCAASGSTFSDYAMGWYRQAPGKERELVASIDSGDSTNYADSVKGRFTISRDNAKNTVYLQMTSLKPEDTAVYFCAADYQNTGARYGYYYWGQGTQVTVSS
4. QVQLVESGGGLVQAGGSLRLSCAASGYIFGSNAMGWYRQAPGKDRELVAGISNNGGSTYYADSVKGRFTISRDKAKNTVYLQMNSLKPEDTAVYYCARDPNDDNSFPYDYWGQGTQVTVSS

Data returned:
high polyreactivity
high polyreactivity
low polyreactivity
low polyreactivity

Parameters: items (list). Returns: polyreactivity (PSR sort gate) for each item.
1. QVQLVESGGGLVPAGGSLRLSCAASGRTFFKNAMGWYRQAPGKERELVARISWNGGDSTYYADSVKGRFTISRDNAKNTVYLQMNSLKPEDTAVYSCAADTSYRPGGSRHGYGYWGQGTQVTVSS
2. QVQLVESRGVLVQAGGSLRLSCAASGRTFYFYVKGWYIQEPGKERELVARISYSDGSTYYADSVKGRFTISRDNAKNTVYLQMNSLKPEDTAVYYCNAYDPYFGRRYDYWGQGTQVTVSS

Data returned:
1: low polyreactivity; 2: low polyreactivity
